Biological target: Phosphatidylinositol 4,5-bisphosphate 3-kinase catalytic subunit beta isoform (Homo sapiens, UniProt P42338)
Sequence (P42338 whole entry, canonical isoform): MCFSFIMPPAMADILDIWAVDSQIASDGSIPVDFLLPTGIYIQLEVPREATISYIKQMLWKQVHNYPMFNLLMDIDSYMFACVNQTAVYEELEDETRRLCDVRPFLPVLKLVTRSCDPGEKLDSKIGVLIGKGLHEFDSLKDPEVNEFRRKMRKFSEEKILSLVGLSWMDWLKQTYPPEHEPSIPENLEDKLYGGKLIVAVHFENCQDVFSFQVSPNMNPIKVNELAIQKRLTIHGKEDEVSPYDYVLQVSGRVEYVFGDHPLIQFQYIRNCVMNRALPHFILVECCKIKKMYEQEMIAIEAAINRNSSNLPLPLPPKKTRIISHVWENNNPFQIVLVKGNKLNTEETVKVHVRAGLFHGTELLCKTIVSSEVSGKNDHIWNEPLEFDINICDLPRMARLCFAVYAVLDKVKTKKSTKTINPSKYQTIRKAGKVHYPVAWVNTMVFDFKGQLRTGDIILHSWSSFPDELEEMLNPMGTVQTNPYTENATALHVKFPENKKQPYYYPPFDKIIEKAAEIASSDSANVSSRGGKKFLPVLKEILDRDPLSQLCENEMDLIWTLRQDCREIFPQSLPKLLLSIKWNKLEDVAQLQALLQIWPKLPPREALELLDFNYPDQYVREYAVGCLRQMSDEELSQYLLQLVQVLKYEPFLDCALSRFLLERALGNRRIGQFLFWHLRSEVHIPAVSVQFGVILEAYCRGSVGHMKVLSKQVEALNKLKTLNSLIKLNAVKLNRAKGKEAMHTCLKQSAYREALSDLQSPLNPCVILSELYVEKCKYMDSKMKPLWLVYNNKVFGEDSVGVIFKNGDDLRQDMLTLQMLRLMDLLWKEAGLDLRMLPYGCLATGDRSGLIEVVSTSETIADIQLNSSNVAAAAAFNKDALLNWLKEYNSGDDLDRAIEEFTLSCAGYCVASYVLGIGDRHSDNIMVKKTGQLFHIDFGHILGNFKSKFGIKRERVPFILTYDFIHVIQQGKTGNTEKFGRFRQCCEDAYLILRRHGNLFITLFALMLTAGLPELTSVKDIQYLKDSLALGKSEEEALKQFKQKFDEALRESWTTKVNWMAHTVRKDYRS
Assay: Inhibition Assays of p110α/p85α, p110β/p85α, p110δ/p85α, and p110γ
pIC50: −log10 of the molar value.
Entries annotated with measured pIC50

Examples with answers:
INSERT INTO assay_data (compound_structure, quantity, observed) VALUES
  ('C[C@H](Nc1ncnc2[nH]cnc12)c1cc2cccc(Cl)c2c(=O)n1-c1ccc(F)cc1', 'pIC50', '> 7.00'),
  ('Cc1cccc2cc(Cn3nc(I)c4c(N)ncnc43)n(C3CCCC3)c(=O)c12', 'pIC50', '< 5.00'),
  ('Cc1cccc2cc(Cn3nc(-c4ccc(O)cc4)c4c(N)ncnc43)n(-c3ccccc3F)c(=O)c12', 'pIC50', '< 5.00');

# evaluate next
Asked: Complete the entry with pIC50 for Cc1cccc2cc(Cn3nc(-c4ccc(Cl)c(O)c4)c4c(N)ncnc43)n(C3CCCC3)c(=O)c12
Given back: > 5.00

Source: BindingDB's records for patent US20250170122
